- method: In vivo pharmacokinetic study
- Design: species or system Sprague–Dawley (SD) rats
- condition_description: male, Sprague-Dawley, serum; rat; Intravenous (5 mg/kg)
property_label: AUC(0-t) (ng·h/mL)
Just the number in ng·h/mL, nothing appended.

Consider the compound shown here: `CC(C)(C)CCOc1c(-c2ccc(F)c(F)c2)oc2cc(OCC(=O)O)cc(O)c2c1=O` What is its recorded AUC(0-t)?
3600

---

- method: In vivo pharmacokinetic study
- Set-up: species or system Sprague–Dawley (SD) rats
- condition_description: male, Sprague-Dawley, serum; rat; Intravenous (5 mg/kg); read-out: MRT0–∞
property_label: MRT inf
Number plus unit, in that order.

Consider the compound shown here: CC(C)(C)CCOc1c(-c2ccc(F)c(F)c2)oc2cc(OCC(=O)O)cc(O)c2c1=O [Compound 5] What is its recorded MRT inf?
27.6 min
